System: Acidovorax sp. CHX chnB monooxygenase
Assay: chnB monooxygenase activity by NADPH oxidation at 340 nm
Format: biochemical
Details: purified over-expressed enzyme; 1.25 mM substrate; pH 7.5; ND = No Activity Detected
Excerpt: Following amplification, the chnB gene fragments were cloned into pTrcHis-TOPO TA vectors with either an N-terminal tail or C-terminal tail, as provided by the vector sequence (N-terminal tail for Brevibacterium sp. HCU, Rhodococcus sp. phi1, Rhodococcus sp. phi2, and Arthrobacter sp. BP2 monooxygenases; C-terminal tail for Acinetobacter sp. SE19 and Acidovorax sp. CHX monooxygenases). […]
Item-by-item account of Specific Activity of Monooxygenase Enzymes Against Various Ketone Substrates, sp. CHX chnB
Reply numerically in µmol/min/mg, unit not repeated.

Ask: State, for Acidovorax sp. CHX chnB monooxygenase, measured Specific Activity of Monooxygenase Enzymes Against Various Ketone Substrates, sp. CHX chnB of the molecule listed here: O=C1CCCCCCC1 [Cyclooctanone]
Reply: 0.410

Ask: State, for Acidovorax sp. CHX chnB monooxygenase, measured Specific Activity of Monooxygenase Enzymes Against Various Ketone Substrates, sp. CHX chnB of the molecule listed here: O=C1CCCCCCCCC1 [Cyclodecanone]
Reply: 0.160

Ask: State, for Acidovorax sp. CHX chnB monooxygenase, measured Specific Activity of Monooxygenase Enzymes Against Various Ketone Substrates, sp. CHX chnB of the molecule listed here: O=C1CCCCCCCCCC1 [Cycloundecanone]
Reply: 0.058

Ask: State, for Acidovorax sp. CHX chnB monooxygenase, measured Specific Activity of Monooxygenase Enzymes Against Various Ketone Substrates, sp. CHX chnB of the molecule listed here: O=C1CCCC(=O)C1 [1,3-cyclohexanedione]
Reply: 0.032

Ask: State, for Acidovorax sp. CHX chnB monooxygenase, measured Specific Activity of Monooxygenase Enzymes Against Various Ketone Substrates, sp. CHX chnB of the molecule listed here: O=C1CCCCC1=O [1,2-cyclohexanedione]
Reply: 0.096

Ask: State, for Acidovorax sp. CHX chnB monooxygenase, measured Specific Activity of Monooxygenase Enzymes Against Various Ketone Substrates, sp. CHX chnB of the molecule listed here: CCCCCCCCCCCC(C)=O [2-tridecanone]
Reply: 0.096

Ask: State, for Acidovorax sp. CHX chnB monooxygenase, measured Specific Activity of Monooxygenase Enzymes Against Various Ketone Substrates, sp. CHX chnB of the molecule listed here: O=C1CCCCCCCCCCC1 [Cyclododecanone]
Reply: 0.051

Ref: patent US7105296B2
